Give fraction unbound for every item shown.
- protocol_description: Plasma protein binding (PPB), human
- Assay type: in vitro ADME
One number for each entry.

| compound | fraction unbound |
| --- | --- |
| CCOc1cc(N(C)C)ccc1-c1cc(=O)[nH]c2cc3c(cc12)OCCO3 | 0.08 |
| CCOc1cc(N(C)C)ccc1-c1cc(=O)[nH]c2cc3c(cc12)OCO3 | 0.1 |
| CCOc1cc(N(C)C)ccc1C1CC(=O)Nc2cc3c(cc21)OCCO3 (stereo not shown) | 0.07 |

# context switch: different compound, same fraction unbound
What value of fraction unbound has been reported for the following compound? CCOc1cc(N(C)C)ccc1C1CC(=O)Nc2cc3c(cc21)OCO3 (stereo not shown)
0.07

The measured values listed here are drawn from patent US11458132B2.
